Where do these numbers come from? They come from PubChem BioAssay.

Reported z-score values are given for each entry in this list.
- protocol details: mitochondrial membrane potential change in A549 cells, profiling panel, cell-based, JC-1 fluorescence, basal, 24 h, 100 nL (AID 1138);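 note: A549 lung adenocarcinoma cells under basal conditions with no added stimulus; test concentration not given here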
- experimental conditions: higher = more signal
Would you mind answering with just the numeric figure?

Worked examples, 6 compounds total:
Prompt: # input compound: CCN1C(=O)[C@H]2[C@H]3[C@H](O)[C@H](O)CC(=NNC(=O)OCc4ccc(OC)cc4)[C@@H]3CC[C@H]2C1=O ; wanted: its z-score
Response: -0.0338

Prompt: Then O=C1[C@H]2[C@H]3[C@H](O)[C@H](O)CC(=NOC[C@@H](O)COCc4ccco4)[C@H]3CC[C@H]2C(=O)N1c1ccc(F)cc1F ?
Response: 0.383

Prompt: Then CCOC(=O)C1=NO[C@@]2(C=C(Br)C3(OCCCO3)[C@H]3O[C@H]32)C1 ?
Response: -0.0326

Prompt: Then COC(=O)CC=C[C@@H](C)[C@@H](C=NOCC[C@@H]1C=C[C@H](OC(C)=O)[C@@H](COC(C)=O)O1)OC ?
Response: 0.493

Prompt: Then CC(C)=NO[C@H](C)c1cn([C@H](CO)Cc2ccccc2)nn1 ?
Response: -0.34

Prompt: Then O=C(NN=C1C[C@@H](O)[C@@H](O)[C@@H]2[C@@H]3C(=O)N(C4CCCCC4)C(=O)[C@@H]3CC[C@H]12)OCc1ccccc1 ?
Response: 0.293

Here is the next item to consider.
Prompt: # input compound: CCOC(=O)NN=C1C[C@@H](O)[C@@H](O)[C@@H]2[C@@H]3C(=O)N(Cc4ccc5c(c4)OCO5)C(=O)[C@@H]3CC[C@H]12 ; wanted: its z-score
Response: 0.0318

----------
- assay system: Concanavalin-A (Canavalia ensiformis) (UniProt P02866)
- Sequence (P02866 whole entry, looked up): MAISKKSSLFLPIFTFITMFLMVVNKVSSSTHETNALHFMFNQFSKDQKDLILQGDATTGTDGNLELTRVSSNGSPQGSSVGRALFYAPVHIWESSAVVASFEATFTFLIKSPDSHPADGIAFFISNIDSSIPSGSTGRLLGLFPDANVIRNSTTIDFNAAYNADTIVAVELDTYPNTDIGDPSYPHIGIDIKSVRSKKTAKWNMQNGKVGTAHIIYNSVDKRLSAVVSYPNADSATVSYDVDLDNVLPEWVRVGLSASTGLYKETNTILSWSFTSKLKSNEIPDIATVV
- protocol details: ConA small-molecule binders, primary screen, artefact control for SMM control protein annotation, biochemical, small-molecule microarray, Alexa647 label, 635 nm (AID 1127);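 note: z combines 667 nm emission intensity with signal-to-noise across three replicate slides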
- experimental conditions: ConA-A647 binding fluorescence, higher = more signal
Binning of composite z-score into classes: band A (below -0.08), band B (-0.08 to below 0.8), band C (0.8 or more)

Known results for molecules:
Prompt: Class label required: CCOC(=O)[C@H](CC(C)C)NC(=O)CCC1CC(OC(=O)NCc2cccc3ccccc23)CC2(CCCC(COC(=O)NCCCN3CCCC3=O)O2)O1 (stereo not given in full)
Response: band C

Prompt: Then CCOC(=O)[C@H](Cc1ccccc1)NC(=O)OC1CC(CCC2CC(CC)=NO2)OC2(CCCC(COC(=O)NCCC(C)C)O2)C1 (stereo not given in full) ?
Response: band C

Prompt: Then CCCNC(=O)OC[C@H]1O[C@H](c2ccccc2)C=C[C@@H]1Oc1ccc(OC)cc1 ?
Response: band A

Prompt: Then CCOC(=O)NN=C1C[C@@H](O)[C@@H](O)[C@@H]2[C@@H]3C(=O)N(Cc4ccccc4)C(=O)[C@@H]3CC[C@H]12 ?
Response: band C

Prompt: Then COC(=O)[C@@H]1CC[C@H](C)[C@@H](c2ccc(C)cc2)N1C(=O)c1ccc(C=NOCC[C@@H]2C=C[C@H](OC(C)=O)[C@@H](COC(C)=O)O2)cc1 ?
Response: band B

Prompt: Then CC(C)=NO[C@H](C)c1cn([C@H](CO)Cc2ccccc2)nn1 ?
Response: band C

Prompt: Then CC(=O)OC[C@H]1OC(ON=CC[C@@H]2C=C[C@H](OC(C)=O)[C@@H](COC(C)=O)O2)[C@H](OC(C)=O)[C@@H](OC(C)=O)[C@@H]1OC(C)=O (stereo not given in full) ?
Response: band B

Prompt: Then COc1ccc(O[C@H]2C=C[C@@H](c3ccccc3)O[C@@H]2CON=CC[C@@H]2C=C[C@H](OC(C)=O)[C@@H](COC(C)=O)O2)cc1 ?
Response: band B

Prompt: Then Cn1c(=O)n2n(c1=O)[C@H]1[C@H](O)[C@@H]3O[C@@H]3C(=O)[C@H]1CC2 ?
Response: band B

Prompt: Then CCCCc1nc2c(c3c1C[C@H](C)OC3)CN(CCOc1ccccc1)CC2 ?
Response: band C

***
Prompt: Class label required: COc1cccc([C@H]2Oc3ccc(OC)cc3C(=NO[C@H](C)c3cn([C@H](CO)Cc4ccccc4)nn3)[C@@H]2O)c1
Response: band A

Prompt: Then CO[C@H]1COC(=O)CC=C[C@@H](C)[C@H](OC)COC(=O)[C@@H]2CCCN2C(=O)CC=C[C@@H]1C ?
Response: band A

Prompt: Then CO[C@H]1COC(=O)[C@@H](Cc2ccccc2)NC(=O)[C@@H](C)COC(=O)CCC[C@@H]1C ?
Response: band A

Prompt: Then CC(C)=CCCC(C)=CCON=C1C[C@@H](O)[C@@H](O)[C@@H]2[C@@H]3C(=O)N(C(C)(C)C)C(=O)[C@@H]3CC[C@@H]12 ?
Response: band B
